Target: T1, human CXCR2 (human, UniProt P25025 1-360)
T1 sequence: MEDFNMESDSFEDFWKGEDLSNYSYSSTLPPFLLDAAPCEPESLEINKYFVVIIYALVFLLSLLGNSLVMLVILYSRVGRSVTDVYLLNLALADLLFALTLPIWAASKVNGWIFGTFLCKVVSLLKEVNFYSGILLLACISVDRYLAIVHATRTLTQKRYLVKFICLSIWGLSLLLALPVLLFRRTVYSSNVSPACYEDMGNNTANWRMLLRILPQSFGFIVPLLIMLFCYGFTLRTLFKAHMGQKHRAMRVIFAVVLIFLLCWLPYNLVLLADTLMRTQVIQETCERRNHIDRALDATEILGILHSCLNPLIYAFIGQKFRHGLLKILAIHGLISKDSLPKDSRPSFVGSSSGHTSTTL
Experiment: cell-based or functional assay
Documented CXCL8 IC50, Tango assay across a set of binders
Measurement label: CXCL8 IC50, Tango assay (nM)

[[record]]
binder = "BKO-4A8-103c (antibody, human IgG4 S228P, lambda, V domains shown, IgG4 S228P, lambda) VH: EVQLLESGGGLVQPGGSLRLSCAASGFTFSSSTQSWVRQPPGKGLEWVSAISGSGGSTYYADSVKGRFTISRDNSKNTLYLQMNSLRAEDTAVYYCAIQMGYWGQGILVTVSS VL: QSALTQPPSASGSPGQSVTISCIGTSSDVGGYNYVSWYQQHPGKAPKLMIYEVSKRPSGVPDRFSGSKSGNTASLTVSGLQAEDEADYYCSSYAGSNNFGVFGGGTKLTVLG"
test_value = 1.25

[[record]]
binder = "BKO-4A8-104c (antibody, human IgG4 S228P, lambda, V domains shown, IgG4 S228P, lambda) VH: EVQLLESGGGLVQPGGSLRLSCAASGFTFSSSTQSWVRQPPGKGLEWVSAISGSGGSTYYADSVKGRFTISRDNSKNTLYLQMNSLRAEDTAVYYCAIQKGYWGQGILVTVSS VL: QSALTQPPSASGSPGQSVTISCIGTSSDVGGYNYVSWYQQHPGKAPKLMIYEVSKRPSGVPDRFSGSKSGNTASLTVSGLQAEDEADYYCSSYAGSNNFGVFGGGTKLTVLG"
test_value = 0.75

[[record]]
binder = "BKO-4A8-101c (antibody, human IgG4 S228P, lambda, V domains shown) VH: EVQLLESGGGLVQPGGSLRLSCAASGFTFSSSTQSWVRQPPGKGLEWVSAISGRGRSTYYADSVKGRFTISRDNSKNTLYLQMNSLRAEDTAVYYCAIQAGYWGQGILVTVSS VL: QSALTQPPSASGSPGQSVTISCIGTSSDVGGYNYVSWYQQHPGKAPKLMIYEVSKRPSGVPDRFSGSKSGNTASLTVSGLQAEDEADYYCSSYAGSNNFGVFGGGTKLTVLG"
test_value = 0.28

[[record]]
binder = "BKO-4A8-105c (antibody, human IgG4 S228P, lambda, V domains shown, IgG4 S228P, lambda) VH: EVQLLESGGGLVQPGGSLRLSCAASGFTFSSSTQSWVRQPPGKGLEWVSAISGSGGSTYYADSVKGRFTISRDNSKNTLYLQMNSLRAEDTAVYYCAIQAGYWGQGILVTVSS VL: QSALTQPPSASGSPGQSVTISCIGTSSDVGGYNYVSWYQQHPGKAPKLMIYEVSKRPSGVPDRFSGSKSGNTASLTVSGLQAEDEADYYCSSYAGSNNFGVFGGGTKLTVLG"
test_value = 1.85

